Hey, just so you know, these numbers are from patent US20230141101A1.

# MEASURED ON: PDE4A1A (Homo sapiens)
# Construct: purchased BPS 60040
# MEASUREMENT PROTOCOL: PDE4 inhibitory activity assay (FAM-cAMP enzymatic reaction), PDE4A1A
# Type: biochemical
# MEASUREMENT SETUP: 20 nM
READOUT: PDE4 A1 inhibitory effect at 20 nM

SMILES TEXT: CCOc1nc([C@@H](CS(C)(=O)=O)n2c(=O)[nH]c3c(C)c(-c4c(F)cccc4F)cnc32)ccc1OC
MEASURED ON: PDE4A1A (Homo sapiens)
PDE4 A1 inhibitory effect at 20 nM: +
--
SMILES TEXT: CCOc1nc([C@@H](CS(C)(=O)=O)n2c(=O)[nH]c3c(C)c(-c4ccc(C)cc4F)cnc32)ccc1OC
MEASURED ON: PDE4A1A (Homo sapiens)
PDE4 A1 inhibitory effect at 20 nM: +
--
SMILES TEXT: CCOc1nc([C@@H](CS(C)(=O)=O)N2C(=O)c3csc(NC(=O)CN4CCCC4)c3C2=O)ccc1OC
MEASURED ON: PDE4A1A (Homo sapiens)
PDE4 A1 inhibitory effect at 20 nM: +
--
SMILES TEXT: CCOc1nc([C@@H](CS(C)(=O)=O)n2c(=O)n(C)c3cc(-c4c(F)cccc4OC)ccc32)ccc1OC
MEASURED ON: PDE4A1A (Homo sapiens)
PDE4 A1 inhibitory effect at 20 nM: +
--
SMILES TEXT: CCOc1nc([C@@H](CS(C)(=O)=O)n2c(=O)n(C)c3cc(-c4cc(F)ccc4F)cnc32)ccc1OC
MEASURED ON: PDE4A1A (Homo sapiens)
PDE4 A1 inhibitory effect at 20 nM: +

Supply PDE4 A1 inhibitory effect at 20 nM value. Item: `CCOc1nc([C@@H](CS(C)(=O)=O)n2c(=O)n(CC(F)(F)F)c3c(C)c(-c4ccccc4F)cnc32)ccc1OC`
+

Supply PDE4 A1 inhibitory effect at 20 nM value. Item: `CCOc1nc([C@H](CS(C)(=O)=O)N2Cc3cccc(NC(=O)C4CC4)c3C2=O)ccc1OC`
+

---

# MEASURED ON: PDE4A1A (Homo sapiens, UniProt P27815)
# Construct: purchased BPS 60040
# Sequence (P27815 1-647 isoform P27815-4): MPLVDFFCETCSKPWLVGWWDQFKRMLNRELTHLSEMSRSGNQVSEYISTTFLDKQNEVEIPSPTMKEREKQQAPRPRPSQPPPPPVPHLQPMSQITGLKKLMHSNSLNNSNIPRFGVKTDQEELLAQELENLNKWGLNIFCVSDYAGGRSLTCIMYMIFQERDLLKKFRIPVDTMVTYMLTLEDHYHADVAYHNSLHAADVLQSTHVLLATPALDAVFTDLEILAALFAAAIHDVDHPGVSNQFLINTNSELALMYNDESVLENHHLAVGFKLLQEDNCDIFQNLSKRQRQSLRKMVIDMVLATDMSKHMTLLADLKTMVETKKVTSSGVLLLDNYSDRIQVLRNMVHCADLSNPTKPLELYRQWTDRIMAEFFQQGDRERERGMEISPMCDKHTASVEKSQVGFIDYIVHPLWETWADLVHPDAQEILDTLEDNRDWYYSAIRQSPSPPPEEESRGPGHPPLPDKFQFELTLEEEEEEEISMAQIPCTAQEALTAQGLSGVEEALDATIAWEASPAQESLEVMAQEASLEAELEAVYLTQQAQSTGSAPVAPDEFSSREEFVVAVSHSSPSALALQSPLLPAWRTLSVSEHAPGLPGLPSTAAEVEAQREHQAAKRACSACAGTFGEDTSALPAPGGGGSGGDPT
# MEASUREMENT PROTOCOL: PDE4 inhibitory activity assay (FAM-cAMP enzymatic reaction), PDE4A1A
# Type: biochemical
# MEASUREMENT SETUP: 20 nM
READOUT: PDE4 A1 inhibitory effect at 20 nM

SMILES TEXT: CCOc1nc([C@@H](CS(C)(=O)=O)n2c(=O)[nH]c3cc(-c4cc(F)c(F)cc4F)ccc32)ccc1OC
MEASURED ON: PDE4A1A (Homo sapiens, UniProt P27815)
PDE4 A1 inhibitory effect at 20 nM: +
--
SMILES TEXT: CCOc1nc([C@H](CS(C)(=O)=O)n2c(=O)[nH]c3c(C)c(-c4ccccc4)cnc32)ccc1OC(F)F
MEASURED ON: PDE4A1A (Homo sapiens, UniProt P27815)
PDE4 A1 inhibitory effect at 20 nM: −
--
SMILES TEXT: CCOc1nc([C@H](CS(C)(=O)=O)n2c(=O)[nH]c3c(C)c(-c4ccccc4C#N)cnc32)ccc1OC
MEASURED ON: PDE4A1A (Homo sapiens, UniProt P27815)
PDE4 A1 inhibitory effect at 20 nM: −
--
SMILES TEXT: CCOc1nc([C@@H](CS(C)(=O)=O)n2c(=O)[nH]c3cc(-c4ccc(C)cc4C)ccc32)ccc1OC
MEASURED ON: PDE4A1A (Homo sapiens, UniProt P27815)
PDE4 A1 inhibitory effect at 20 nM: +
--
SMILES TEXT: CCOc1nc([C@@H](CS(C)(=O)=O)n2c(=O)n(C)c3cc(-c4ccccn4)cnc32)ccc1OC
MEASURED ON: PDE4A1A (Homo sapiens, UniProt P27815)
PDE4 A1 inhibitory effect at 20 nM: +

Supply PDE4 A1 inhibitory effect at 20 nM value. Item: `CCOc1nc([C@@H](CS(C)(=O)=O)n2c(=O)n(CC(F)F)c3c(C)c(-c4ccc(F)cc4)cnc32)ccc1OC`
+

Supply PDE4 A1 inhibitory effect at 20 nM value. Item: `CCOc1nc([C@@H](CS(C)(=O)=O)n2c(=O)[nH]c3c(C)c(-c4ccccc4C#N)cnc32)ccc1OC`
−

---

# MEASURED ON: PDE4A1A (Homo sapiens)
# Construct: purchased BPS 60040
# MEASUREMENT PROTOCOL: PDE4 inhibitory activity assay (FAM-cAMP enzymatic reaction), PDE4A1A
# Type: biochemical
# MEASUREMENT SETUP: 20 nM
READOUT: PDE4 A1 inhibitory effect at 20 nM

Example entries begin here.
SMILES TEXT: CCOc1nc([C@@H](CS(C)(=O)=O)n2c(=O)[nH]c3c(C)c(-c4c(C)cccc4C)cnc32)ccc1OC
PDE4 A1 inhibitory effect at 20 nM: +

SMILES TEXT: CCOc1nc([C@@H](CS(C)(=O)=O)n2c(=O)n(C)c3cc(-c4cc(F)ccc4OC)cnc32)ccc1OC
PDE4 A1 inhibitory effect at 20 nM: +

SMILES TEXT: CCOc1nc([C@@H](CS(C)(=O)=O)n2c(=O)n(CC(F)F)c3c(C)c(-c4ccccc4)cnc32)ccc1OC(C)C
PDE4 A1 inhibitory effect at 20 nM: +

SMILES TEXT: CCOc1nc([C@@H](CS(C)(=O)=O)n2c(=O)[nH]c3cc(-c4ccccc4)ccc32)ccc1OC
PDE4 A1 inhibitory effect at 20 nM: +

SMILES TEXT: CCOc1nc([C@@H](CS(C)(=O)=O)n2c(=O)[nH]c3cc(-c4ccc(F)cc4OC)ccc32)ccc1OC
PDE4 A1 inhibitory effect at 20 nM: +

# evaluate next
Supply PDE4 A1 inhibitory effect at 20 nM value. Item: `CCOc1nc([C@@H](CS(C)(=O)=O)n2c(=O)[nH]c3cc(-c4c(F)cccc4F)ccc32)ccc1OC`
+

---

# MEASURED ON: PDE4A1A (Homo sapiens)
# Construct: purchased BPS 60040
# MEASUREMENT PROTOCOL: PDE4 inhibitory activity assay (FAM-cAMP enzymatic reaction), PDE4A1A
# Type: biochemical
# MEASUREMENT SETUP: 20 nM

SMILES TEXT: CCOc1nc([C@@H](CS(C)(=O)=O)n2c(=O)n(C)c3cc(-c4ccc(C)cc4C)cnc32)ccc1OC
PDE4 A1 inhibitory effect at 20 nM: +
//
SMILES TEXT: CCOc1nc([C@@H](CS(C)(=O)=O)n2c(=O)[nH]c3cc(-c4ccccc4)cnc32)ccc1OC
PDE4 A1 inhibitory effect at 20 nM: +
//
SMILES TEXT: CCOc1nc([C@@H](CS(C)(=O)=O)n2c(=O)[nH]c3cc(-c4ccc(C)cc4C)cnc32)ccc1OC
PDE4 A1 inhibitory effect at 20 nM: +

---

# MEASURED ON: PDE4B1 (Homo sapiens, UniProt Q07343)
# Construct: purchased BPS 60041
# Sequence (Q07343 whole entry): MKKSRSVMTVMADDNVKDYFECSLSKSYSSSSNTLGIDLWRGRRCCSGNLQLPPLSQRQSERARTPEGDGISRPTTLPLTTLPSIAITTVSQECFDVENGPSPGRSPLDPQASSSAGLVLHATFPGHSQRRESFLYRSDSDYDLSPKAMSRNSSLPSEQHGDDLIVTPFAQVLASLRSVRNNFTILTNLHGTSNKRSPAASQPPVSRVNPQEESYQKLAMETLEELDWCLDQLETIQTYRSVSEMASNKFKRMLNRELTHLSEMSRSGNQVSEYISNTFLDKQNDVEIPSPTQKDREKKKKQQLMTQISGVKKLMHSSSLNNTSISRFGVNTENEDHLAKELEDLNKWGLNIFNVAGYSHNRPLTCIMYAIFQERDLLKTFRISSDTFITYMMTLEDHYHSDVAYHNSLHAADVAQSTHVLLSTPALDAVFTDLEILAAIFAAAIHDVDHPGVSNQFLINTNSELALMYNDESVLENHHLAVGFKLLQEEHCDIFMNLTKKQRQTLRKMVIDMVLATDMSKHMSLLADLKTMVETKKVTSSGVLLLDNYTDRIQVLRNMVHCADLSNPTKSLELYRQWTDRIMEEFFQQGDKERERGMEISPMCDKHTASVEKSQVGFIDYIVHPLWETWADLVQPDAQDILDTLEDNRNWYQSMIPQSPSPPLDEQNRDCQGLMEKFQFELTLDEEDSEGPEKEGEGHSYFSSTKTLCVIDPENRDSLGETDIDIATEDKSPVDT
# MEASUREMENT PROTOCOL: PDE4 inhibitory activity assay (FAM-cAMP enzymatic reaction), PDE4B1
# Format: biochemical
# MEASUREMENT SETUP: 20 nM

SMILES TEXT: CCOc1nc([C@@H](CS(C)(=O)=O)n2c(=O)n(C)c3cc(-c4c(F)cccc4F)cnc32)ccc1OC
PDE4 B1 inhibitory effect at 20 nM: +

SMILES TEXT: CCOc1nc([C@H](CS(C)(=O)=O)n2c(=O)n(CC)c3c(C)c(-c4ccc(F)cc4)cnc32)ccc1OC
PDE4 B1 inhibitory effect at 20 nM: −

SMILES TEXT: CCOc1nc([C@@H](CS(C)(=O)=O)n2c(=O)[nH]c3c(C)c(-c4ccccc4C)cnc32)ccc1OC(F)F
PDE4 B1 inhibitory effect at 20 nM: +

SMILES TEXT: CCOc1nc([C@@H](CS(C)(=O)=O)N2C(=O)c3csc(NC(=O)CN(CC)CC)c3C2=O)ccc1OC
PDE4 B1 inhibitory effect at 20 nM: +

---

# MEASURED ON: PDE4B1 (Homo sapiens, UniProt Q07343)
# Construct: purchased BPS 60041
# MEASUREMENT PROTOCOL: PDE4 inhibitory activity assay (FAM-cAMP enzymatic reaction), PDE4B1
# Format: biochemical
# MEASUREMENT SETUP: 20 nM
READOUT: PDE4 B1 inhibitory effect at 20 nM

Example entries begin here.
MOLECULE: CCOc1nc([C@@H](CS(C)(=O)=O)n2c(=O)n(C3CC3)c3cc(C)ccc32)ccc1OC [Ex. 209]
TEST VALUE: +
//
MOLECULE: CCOc1nc([C@@H](CS(C)(=O)=O)n2c(=O)[nH]c3cc(-c4cc(F)ccc4C)cnc32)ccc1OC [Ex. 109]
TEST VALUE: +
//
MOLECULE: CCOc1nc([C@@H](CS(C)(=O)=O)n2c(=O)[nH]c3cc(Br)ccc32)ccc1OC [Ex. 129]
TEST VALUE: +
//
MOLECULE: CCOc1nc([C@H](CS(C)(=O)=O)n2c(=O)[nH]c3c(C)c(-c4cccc(F)c4F)cnc32)ccc1OC [Ex. 26]
TEST VALUE: −
//
MOLECULE: CCOc1nc([C@@H](CS(C)(=O)=O)n2c(=O)[nH]c3cc(-c4ccccn4)cnc32)ccc1OC [Ex. 122]
TEST VALUE: +
//
MOLECULE: CCOc1nc([C@@H](CS(C)(=O)=O)N2C(=O)c3csc(NC(=O)C4CC4)c3C2=O)ccc1OC [Ex. 227]
TEST VALUE: +

# evaluate next
Supply PDE4 B1 inhibitory effect at 20 nM value. Item: CCOc1nc([C@H](CS(C)(=O)=O)n2c(=O)[nH]c3c(C)c(-c4ccccc4C#N)cnc32)ccc1OC [Ex. 16]
−
